Exercise: state measured AUC(0-inf) for each of the compounds provided.
Assay: Single dose PK after 1 mg/kg intravenous dosing to rat
Assay type: in vivo, Male Wister-Han Rats
Conditions: male, Wister-Han, plasma, iv, 1 mg/kg, IV 1 mpk
Give bare numbers, in µM·h.

CCS(=N)(=O)c1nc(N)c2[nH]c(=O)n(Cc3ccc(Cl)cc3)c2n1 (single isomer, unassigned)    1.63

Attention now shifts to the item below.
Would you kindly share the measured AUC(0-inf) for CCS(=N)(=O)c1nc(N)c2[nH]c(=O)n(Cc3ccc(C)cc3)c2n1 (single isomer, unassigned) ?
1.18

---

Target: human TLR8 (Homo sapiens (Human))
Sequence (Q9NR97 27-1041): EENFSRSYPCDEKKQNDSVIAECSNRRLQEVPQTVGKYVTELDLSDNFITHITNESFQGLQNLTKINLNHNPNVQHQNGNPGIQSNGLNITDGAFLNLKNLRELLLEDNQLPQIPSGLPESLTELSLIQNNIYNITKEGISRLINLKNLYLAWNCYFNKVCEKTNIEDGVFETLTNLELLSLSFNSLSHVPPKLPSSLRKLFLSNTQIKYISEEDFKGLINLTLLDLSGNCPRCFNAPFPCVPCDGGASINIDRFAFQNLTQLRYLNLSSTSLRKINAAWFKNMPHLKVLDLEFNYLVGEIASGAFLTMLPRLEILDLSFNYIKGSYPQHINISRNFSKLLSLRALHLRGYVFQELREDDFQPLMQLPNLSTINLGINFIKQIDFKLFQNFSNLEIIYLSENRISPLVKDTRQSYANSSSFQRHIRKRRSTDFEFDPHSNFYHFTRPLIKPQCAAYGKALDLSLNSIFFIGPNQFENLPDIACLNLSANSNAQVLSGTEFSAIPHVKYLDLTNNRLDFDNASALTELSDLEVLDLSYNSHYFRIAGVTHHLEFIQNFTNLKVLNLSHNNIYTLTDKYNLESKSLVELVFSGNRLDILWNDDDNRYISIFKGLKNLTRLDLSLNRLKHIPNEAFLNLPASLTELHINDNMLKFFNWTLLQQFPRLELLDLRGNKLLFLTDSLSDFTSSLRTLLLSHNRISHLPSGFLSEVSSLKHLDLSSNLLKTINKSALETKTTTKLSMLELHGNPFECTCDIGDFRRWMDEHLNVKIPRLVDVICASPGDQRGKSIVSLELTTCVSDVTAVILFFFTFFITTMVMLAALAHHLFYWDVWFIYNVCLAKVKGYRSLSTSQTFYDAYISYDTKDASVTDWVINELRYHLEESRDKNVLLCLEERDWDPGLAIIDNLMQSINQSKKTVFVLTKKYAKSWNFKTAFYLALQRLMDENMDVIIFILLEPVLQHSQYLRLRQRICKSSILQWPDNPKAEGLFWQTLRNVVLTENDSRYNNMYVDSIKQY
Experiment: HEK-Blue-hTLR8 cells assay (SEAP reporter) and selectivity index
Settings: 20 hrs, read-out: HEK Blue hTLR-8 EC50
pEC50: −log10 of the molar value.
measured.parameter: pEC50

Would you kindly share the measured pEC50 for CCS(=N)(=O)c1nc(N)c2[nH]c(=O)n(Cc3ccc(Cl)cc3)c2n1 (single isomer, unassigned) [Example 70-A] ?
< 3.00

---

Assay: Single dose PK after 1 mg/kg intravenous dosing to rat
Type: in vivo, Male Wister-Han Rats
Conditions: IV 1 mpk
measured.parameter: C0

CCS(=N)(=O)c1nc(N)c2[nH]c(=O)n(Cc3ccc(Cl)cc3)c2n1 (single isomer, unassigned)    2780 nM

Attention now shifts to the item below.
Would you kindly share the measured C0 for CS(=O)(=O)c1nc(N)c2[nH]c(=O)n(Cc3ccccc3)c2n1 [Example S-1, reference compound] ?
534 nM

---

Assay: Single dose PK after 1 mg/kg intravenous dosing to rat
Format: in vivo, Male Wister-Han Rats
Details: male, Wister-Han, plasma, iv, 1 mg/kg, IV 1 mpk
measured.parameter: clearance (mL/min/kg)
Give bare numbers, in mL/min/kg.

CCS(=N)(=O)c1nc(N)c2[nH]c(=O)n(Cc3ccc(Cl)cc3)c2n1 (single isomer, unassigned)    56

Would you kindly share the measured clearance for CCS(=N)(=O)c1nc(N)c2[nH]c(=O)n(Cc3ccc(C)cc3)c2n1 (single isomer, unassigned) ?
84.6

---

Exercise: state measured IC20 for each of the compounds provided.
Target: hERG channel (Homo sapiens (Human))
Sequence (Q12809 whole entry): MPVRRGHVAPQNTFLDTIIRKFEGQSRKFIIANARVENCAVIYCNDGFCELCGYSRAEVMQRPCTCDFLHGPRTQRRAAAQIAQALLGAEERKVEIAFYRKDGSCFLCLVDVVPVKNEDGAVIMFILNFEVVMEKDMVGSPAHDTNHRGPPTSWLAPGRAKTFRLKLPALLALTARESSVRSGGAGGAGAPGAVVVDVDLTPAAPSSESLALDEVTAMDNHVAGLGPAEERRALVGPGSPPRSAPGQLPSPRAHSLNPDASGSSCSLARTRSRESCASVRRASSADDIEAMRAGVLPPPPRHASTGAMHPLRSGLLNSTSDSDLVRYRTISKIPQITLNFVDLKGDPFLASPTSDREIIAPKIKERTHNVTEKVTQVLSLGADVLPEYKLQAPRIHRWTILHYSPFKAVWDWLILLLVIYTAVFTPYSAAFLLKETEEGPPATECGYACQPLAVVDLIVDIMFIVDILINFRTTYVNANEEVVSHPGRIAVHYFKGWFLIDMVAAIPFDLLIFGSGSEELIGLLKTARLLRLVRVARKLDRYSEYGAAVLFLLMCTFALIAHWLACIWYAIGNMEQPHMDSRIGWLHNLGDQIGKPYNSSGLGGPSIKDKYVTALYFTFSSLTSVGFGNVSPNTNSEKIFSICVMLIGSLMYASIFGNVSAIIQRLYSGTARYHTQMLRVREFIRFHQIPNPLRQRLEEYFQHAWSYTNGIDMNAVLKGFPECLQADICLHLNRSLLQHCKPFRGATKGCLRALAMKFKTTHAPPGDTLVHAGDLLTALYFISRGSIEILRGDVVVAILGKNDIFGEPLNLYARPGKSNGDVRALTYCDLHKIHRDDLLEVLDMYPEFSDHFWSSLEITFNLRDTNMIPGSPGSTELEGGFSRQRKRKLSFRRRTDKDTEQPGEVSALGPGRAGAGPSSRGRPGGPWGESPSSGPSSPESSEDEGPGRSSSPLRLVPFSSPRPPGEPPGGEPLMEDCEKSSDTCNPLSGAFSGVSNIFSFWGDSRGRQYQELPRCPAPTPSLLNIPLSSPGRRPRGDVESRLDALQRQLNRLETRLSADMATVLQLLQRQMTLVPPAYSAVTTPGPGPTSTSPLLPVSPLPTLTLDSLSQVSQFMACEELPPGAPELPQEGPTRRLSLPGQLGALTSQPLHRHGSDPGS
Experiment: hERG channel inhibition assay (patch-clamp, CHOhERG cells)
Format: cell-based
Settings: human, CHO cells stably expressing hERG
Procedure: The hERG K^+ channels were cloned in humans and stably expressed in a CHO (Chinese hamster ovary) cell line. CHOhERG cells were used for patch-clamp (voltage-clamp, whole-cell) experiments. Cells were stimulated by a voltage pattern to activate hERG channels and conduct IKhERG currents (rapid delayed outward rectifier potassium current of the hERG channel). […] The amplitude and kinetics of IKhERG are recorded in each concentration of the drug which were compared to the control values (taken as 100%). […]

CCCS(=N)(=O)c1nc(N)c2[nH]c(=O)n(Cc3ccc(C)cc3)c2n1 (single isomer, unassigned)    > 10 µM

Provide reported IC20 for each item, in the same order as listed.
1. CCS(=N)(=O)c1nc(N)c2[nH]c(=O)n(Cc3ccc(C)cc3)c2n1 (single isomer, unassigned)
2. CS(=N)(=O)c1nc(N)c2[nH]c(=O)n(Cc3ccccc3)c2n1 (single isomer, unassigned)

> 10 µM
> 10 µM

---

Molecular target: human TLR7 (Homo sapiens (Human), UniProt Q9NYK1)
Sequence (Q9NYK1 27-1049): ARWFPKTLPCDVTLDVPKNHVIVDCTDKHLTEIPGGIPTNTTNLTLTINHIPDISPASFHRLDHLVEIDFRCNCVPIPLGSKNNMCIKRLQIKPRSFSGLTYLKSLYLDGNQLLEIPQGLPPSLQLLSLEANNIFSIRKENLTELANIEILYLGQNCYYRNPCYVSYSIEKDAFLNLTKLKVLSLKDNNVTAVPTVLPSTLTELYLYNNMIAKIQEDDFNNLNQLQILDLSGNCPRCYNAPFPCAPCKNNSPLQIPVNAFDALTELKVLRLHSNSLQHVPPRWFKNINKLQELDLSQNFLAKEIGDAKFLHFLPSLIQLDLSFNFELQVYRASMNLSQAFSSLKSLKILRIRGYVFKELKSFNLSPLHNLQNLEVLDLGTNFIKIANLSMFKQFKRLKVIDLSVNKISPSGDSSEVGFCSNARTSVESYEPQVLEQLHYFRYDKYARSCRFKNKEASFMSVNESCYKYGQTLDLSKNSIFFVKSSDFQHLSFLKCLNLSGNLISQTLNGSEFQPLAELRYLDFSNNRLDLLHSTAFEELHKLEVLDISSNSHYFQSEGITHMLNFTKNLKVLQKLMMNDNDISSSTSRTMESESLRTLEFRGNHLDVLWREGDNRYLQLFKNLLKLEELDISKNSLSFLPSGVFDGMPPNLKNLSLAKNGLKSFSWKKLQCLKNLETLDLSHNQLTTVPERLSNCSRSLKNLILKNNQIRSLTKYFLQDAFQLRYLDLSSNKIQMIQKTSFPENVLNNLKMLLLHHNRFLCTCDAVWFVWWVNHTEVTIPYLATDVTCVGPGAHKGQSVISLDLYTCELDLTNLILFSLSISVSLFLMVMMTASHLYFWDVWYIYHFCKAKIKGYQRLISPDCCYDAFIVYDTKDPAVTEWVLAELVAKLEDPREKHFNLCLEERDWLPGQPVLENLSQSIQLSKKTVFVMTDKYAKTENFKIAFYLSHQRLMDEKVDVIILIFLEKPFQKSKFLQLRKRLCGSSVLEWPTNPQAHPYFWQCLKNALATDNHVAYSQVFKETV
Assay: HEK-Blue-hTLR7 cells assay (SEAP reporter)
Assay type: cell-based
Details: 20 hrs, read-out: HEK-Blue-hTLR7 (EC50 (μM))
Flag rule - EC50 less than 0.08 µM flags 1.0; the remaining entries get 0.0.

Below are worked cases with known answers.
CCS(=N)(=O)c1nc(N)c2[nH]c(=O)n(Cc3ccc(Cl)cc3)c2n1 (single isomer, unassigned) [Example 70-B]    1.0
CCS(=N)(=O)c1nc(N)c2[nH]c(=O)n(Cc3ccc(Cl)cc3)c2n1 (single isomer, unassigned) [Example 70-A]    1.0
CCS(=N)(=O)c1nc(N)c2[nH]c(=O)n(Cc3ccc(C)cc3)c2n1 (single isomer, unassigned) [Example 71-A]    0.0
CS(=N)(=O)c1nc(N)c2[nH]c(=O)n(Cc3ccccc3)c2n1 (single isomer, unassigned)    0.0

Continue with the next compound.
Dear colleague, could you confirm whether EC50 of CCS(=N)(=O)c1nc(N)c2[nH]c(=O)n(Cc3ccc(C)cc3)c2n1 (single isomer, unassigned) [Example 71-B] falls below 0.08 µM? Thanks.
0.0
